assayed-target: PDGFRA (PDGFR alpha) (Homo sapiens, UniProt P16234)
Construct: purchased Invitrogen
Sequence (P16234 24-1089): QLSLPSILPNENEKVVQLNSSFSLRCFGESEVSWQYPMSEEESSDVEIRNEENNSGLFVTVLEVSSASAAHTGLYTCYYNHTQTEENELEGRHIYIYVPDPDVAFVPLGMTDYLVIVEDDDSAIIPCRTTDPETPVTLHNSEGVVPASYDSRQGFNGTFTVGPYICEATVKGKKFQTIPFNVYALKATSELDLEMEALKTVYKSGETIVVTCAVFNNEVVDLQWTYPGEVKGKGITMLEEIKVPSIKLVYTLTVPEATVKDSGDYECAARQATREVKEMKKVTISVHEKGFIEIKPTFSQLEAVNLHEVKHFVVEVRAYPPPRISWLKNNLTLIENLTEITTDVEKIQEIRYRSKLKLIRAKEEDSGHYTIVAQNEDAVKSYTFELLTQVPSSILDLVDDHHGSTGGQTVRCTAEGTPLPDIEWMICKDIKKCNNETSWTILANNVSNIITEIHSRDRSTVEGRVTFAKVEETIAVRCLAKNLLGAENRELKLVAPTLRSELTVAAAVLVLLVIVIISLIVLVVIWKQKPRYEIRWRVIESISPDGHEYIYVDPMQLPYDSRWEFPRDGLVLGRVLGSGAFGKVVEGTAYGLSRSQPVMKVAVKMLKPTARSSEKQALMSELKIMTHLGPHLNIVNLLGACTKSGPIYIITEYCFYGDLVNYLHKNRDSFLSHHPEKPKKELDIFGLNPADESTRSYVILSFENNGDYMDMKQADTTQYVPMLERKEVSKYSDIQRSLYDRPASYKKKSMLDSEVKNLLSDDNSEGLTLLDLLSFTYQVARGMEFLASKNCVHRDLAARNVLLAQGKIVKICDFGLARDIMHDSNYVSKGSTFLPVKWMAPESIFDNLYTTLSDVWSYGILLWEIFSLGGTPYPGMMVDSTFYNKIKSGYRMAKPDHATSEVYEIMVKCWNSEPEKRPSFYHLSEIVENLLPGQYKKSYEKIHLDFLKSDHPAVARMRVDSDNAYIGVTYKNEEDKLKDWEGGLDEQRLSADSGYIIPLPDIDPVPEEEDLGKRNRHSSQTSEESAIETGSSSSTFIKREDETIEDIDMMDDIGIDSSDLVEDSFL
protocol-description: In vitro kinase assay (Z'-LYTE), PDGFRA
Assay type: biochemical
condition-context: read-out: % of inhibition of the kinase compared to the control
parameter-measured: inhibition at 0.1 µM

Note to self: inhibition at 0.1 µM recorded for CC(=O)c1cc2cc(NCc3cc(NC(=O)c4cncc(C(F)(F)F)c4)ccc3C)cnc2[nH]1 [OR0721] was ≥ 50%

----------
Tested on: HepG2 cell line
protocol-description: In vitro cell proliferation assay (MTT), HepG2
Format: cell-based
condition-context: Homo sapiens, HepG2, 72 h; read-out: EC50, anti-proliferative activity
parameter-measured: EC50

>  <compound>
CC(=O)c1cc2cc(NCc3cccc(NC(=O)c4ccc(CN5CCN(C)CC5)c(C(F)(F)F)c4)c3)cnc2[nH]1

>  <obs-value>
≤ 100 nM

$$$$
>  <compound>
CC(=O)c1cc2cc(NCc3cc(NC(=O)c4ccc(CN5CCC(N(C)C)C5)c(C(F)(F)F)c4)ccc3C)cnc2[nH]1 (stereo not shown)

>  <obs-value>
100 to 1000 nM

$$$$
>  <compound>
CC(=O)c1cc2cc(NCc3cc(NC(=O)c4ccc(CN5CC[C@H](N(C)C)C5)c(C(F)(F)F)c4)ccc3C)cnc2[nH]1

>  <obs-value>
≤ 100 nM

$$$$

// switching to the query compound
Note to self: EC50 recorded for CNC(=O)c1cc2cc(NCc3cc(NC(=O)c4ccc(CN5CCC(N(C)C)C5)c(C(F)(F)F)c4)ccc3C)cnc2[nH]1 (stereo not shown) was 100 to 1000 nM

----------
Quick reference: inhibition at 0.1 µM of the listed items.
assayed-target: SRC (Homo sapiens)
Construct: purchased Invitrogen
Sequence (P12931 whole entry): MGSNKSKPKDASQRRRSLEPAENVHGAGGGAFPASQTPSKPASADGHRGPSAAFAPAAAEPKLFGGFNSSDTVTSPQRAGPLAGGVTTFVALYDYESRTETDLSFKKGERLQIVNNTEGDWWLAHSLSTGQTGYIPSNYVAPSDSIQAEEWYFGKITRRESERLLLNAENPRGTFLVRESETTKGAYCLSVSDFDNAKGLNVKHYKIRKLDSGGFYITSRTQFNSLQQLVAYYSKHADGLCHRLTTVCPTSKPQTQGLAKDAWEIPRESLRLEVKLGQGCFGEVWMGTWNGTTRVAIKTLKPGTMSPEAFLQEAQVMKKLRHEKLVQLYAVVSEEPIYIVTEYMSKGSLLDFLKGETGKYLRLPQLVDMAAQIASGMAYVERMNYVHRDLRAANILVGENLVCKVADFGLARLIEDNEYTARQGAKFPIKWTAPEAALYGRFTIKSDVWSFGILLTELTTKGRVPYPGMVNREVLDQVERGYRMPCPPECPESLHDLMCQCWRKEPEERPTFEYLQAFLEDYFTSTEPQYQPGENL
protocol-description: In vitro kinase assay (Z'-LYTE), SRC
Format: biochemical
condition-context: read-out: % of inhibition of the kinase compared to the control

The reported inhibition at 0.1 µM of the compound Cc1ccc(NC(=O)c2cncc(C(F)(F)F)c2)cc1C(=S)Nc1cnc2[nH]c(C(=O)O)cc2c1 was ≥ 50%

inhibition at 0.1 µM recorded for this compound, CC(=O)c1cc2cc(NCc3cc(NC(=O)c4ccnc(C)c4)ccc3C)cnc2[nH]1 , is < 50%

inhibition at 0.1 µM for CC(=O)c1cc2cc(NCc3cc(NC(=O)c4ccc5[nH]nnc5c4)ccc3C)cnc2[nH]1 is < 50%

CC(=O)c1cc2cc(NCc3cc(NC(=O)c4ccc(CN5CCN(C)CC5)cc4)ccc3C)cnc2[nH]1 has a reported inhibition at 0.1 µM of ≥ 50%

----------
assayed-target: PDGFRA (PDGFR alpha) (Homo sapiens, UniProt P16234)
Construct: purchased Invitrogen
protocol-description: In vitro kinase assay (Z'-LYTE), PDGFRA
Format: biochemical
condition-context: read-out: % of inhibition of the kinase compared to the control
parameter-measured: inhibition at 0.1 µM

Record excerpt, results attached:
>  <mol-smiles>
CNC(=O)c1cc2cc(NCc3cc(NC(=O)c4ccc(CN5CCN(C)CC5)c(C(F)(F)F)c4)ccc3C)cnc2[nH]1

>  <assayed-target>
PDGFRA (PDGFR alpha) (Homo sapiens, UniProt P16234)

>  <parameter-measured>
inhibition at 0.1 µM

>  <obs-value>
≥ 50%

$$$$
>  <mol-smiles>
CC(=O)c1cc2cc(NCc3cc(NC(=O)c4ccn[nH]4)ccc3C)cnc2[nH]1

>  <assayed-target>
PDGFRA (PDGFR alpha) (Homo sapiens, UniProt P16234)

>  <parameter-measured>
inhibition at 0.1 µM

>  <obs-value>
≥ 50%

$$$$
>  <mol-smiles>
CNC(=O)c1cc2cc(NCc3cc(NC(=O)c4ccc(CN5CCN(C)CC5)cc4)ccc3C)cnc2[nH]1

>  <assayed-target>
PDGFRA (PDGFR alpha) (Homo sapiens, UniProt P16234)

>  <parameter-measured>
inhibition at 0.1 µM

>  <obs-value>
≥ 50%

$$$$
>  <mol-smiles>
CC(=O)c1cc2cc(NC(=O)c3cc(NC(=O)c4ccc(CN5CCN(C)CC5)cc4)ccc3C)cnc2[nH]1

>  <assayed-target>
PDGFRA (PDGFR alpha) (Homo sapiens, UniProt P16234)

>  <parameter-measured>
inhibition at 0.1 µM

>  <obs-value>
≥ 50%

$$$$
>  <mol-smiles>
CC(=O)c1cc2cc(NCc3cccc(NC(=O)c4cncc(C(F)(F)F)c4)c3)cnc2[nH]1

>  <assayed-target>
PDGFRA (PDGFR alpha) (Homo sapiens, UniProt P16234)

>  <parameter-measured>
inhibition at 0.1 µM

>  <obs-value>
≥ 50%

$$$$
>  <mol-smiles>
CC(=O)c1cc2cc(NCc3cc(NC(=O)c4cc(-n5cnc(C)c5)cc(C(F)(F)F)c4)ccc3C)cnc2[nH]1

>  <assayed-target>
PDGFRA (PDGFR alpha) (Homo sapiens, UniProt P16234)

>  <parameter-measured>
inhibition at 0.1 µM

>  <obs-value>
< 50%

$$$$
>  <mol-smiles>
Cc1ccc(NC(=O)c2ccc(CN3CCN(C)CC3)cc2)cc1CNc1cnc2[nH]c(C(=O)O)cc2c1

>  <assayed-target>
PDGFRA (PDGFR alpha) (Homo sapiens, UniProt P16234)

>  <parameter-measured>
inhibition at 0.1 µM

>  <obs-value>
≥ 50%

$$$$

Please look at the following molecule next.
Entry under test: CC(=O)c1cc2cc(NCc3cc(NC(=O)Nc4cccnc4)ccc3C)cnc2[nH]1 . Its inhibition at 0.1 µM was ≥ 50%
